- testedSystem: Sphingosine kinase 1 (Homo sapiens)
- Sequence (Q9NYA1 whole entry): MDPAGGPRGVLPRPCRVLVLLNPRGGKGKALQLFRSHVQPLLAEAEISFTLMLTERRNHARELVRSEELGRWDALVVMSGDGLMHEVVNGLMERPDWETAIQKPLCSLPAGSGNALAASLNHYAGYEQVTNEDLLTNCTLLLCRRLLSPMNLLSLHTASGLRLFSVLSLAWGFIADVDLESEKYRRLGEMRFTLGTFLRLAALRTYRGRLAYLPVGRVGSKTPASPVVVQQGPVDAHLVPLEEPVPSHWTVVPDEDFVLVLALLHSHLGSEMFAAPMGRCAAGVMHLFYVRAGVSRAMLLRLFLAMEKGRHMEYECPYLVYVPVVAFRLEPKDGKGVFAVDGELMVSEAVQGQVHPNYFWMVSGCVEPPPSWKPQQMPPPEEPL
- experimentDescription: Inhibition of human SphK1 expressed in baculovirus infected in Sf9 cells using D-erythro-sphingosine as substrate and [gamma-32P]ATP by scintillation counting method
quantityKind: Ki (nM)
Just the number in nM, nothing appended.

Some solved cases for reference:
- moleculeSmiles: "CCCCCCCCCCCCc1ccc(-c2noc(C3(C(=N)N)CC3)n2)cc1"
  Ki / nM: 320
- moleculeSmiles: "CCCCCCCCCCCc1cccc(-c2noc(C3(C(=N)N)CC3)n2)c1"
  Ki / nM: 70
- moleculeSmiles: "CCCCCCCCCCCCc1cccc(-c2noc(C3(C(=N)N)CC3)n2)c1"
  Ki / nM: 40

Next, consider the following compound.
Reported Ki for CCCCCCCCCCCCCc1ccc(-c2noc(C3(C(=N)N)CC3)n2)cc1 was 2500
